This collection of values is drawn from the supplement of paper PMC9112550.

# Test system: Escherichia coli TOP10
# measurement protocol: shrunken log2 fold change of peptide-encoding DNA abundance (4.5 h post-induction vs induction); higher = less antimicrobial activity (less host growth inhibition)
# assay conditions: time post-induction: 4.5 h; library: site-saturation at positions 5, 18, 19, 20
readout label: shrunken log2 fold change
Reply: number alone, nothing else.

RRIRWRPPRLPRPRPRPFFLPRP ... -0.0114
RRIRNRPPRLPRPRPRPGIQPRP ... 0.00115

Then there is this sequence:
**Q:** Provide shrunken log2 fold change, system Escherichia coli TOP10, entry `RRIRQRPPRLPRPRPRPAVLPRP`;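 further: peptides expressed intracellularly from a pBAD plasmid library in pooled LB shake-flask culture, induced with 0.3% L-arabinose, DNA abundance read by NGS, three biological replicates, DESeq2 with apeglm shrinkage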
**A:** 0.0386
